The measured values listed here are drawn from patent US10800791B2.

Each entry below lists one item and its recorded IC90 value.
# Test system: Fusarium virguliforme (Fv)
# Procedure text: Growth inhibition assay of fungal pathogens, Fv
# Type: cell-based
# Condition parameters: 48 h, growth inhibition vs 2% DMSO control at 48 hours, read-out: Concentration at 90% Inhibition Fv

{"columns": ["Structure smiles string", "Unit descriptor", "Comparative sign", "IC90"],
 "data": [
  ["COc1ccc(F)cc1[C@H](Cn1c(=O)n(C(C)(C)C(=O)N2CCCC2)c(=O)c2c(C)c(-n3nccn3)sc21)OC[C@H](C)O", "µg/mL", "=", 0.4],
  ["COc1ccc(F)cc1[C@H](Cn1c(=O)n(C(C)(C)C(=O)N2CCCC2)c(=O)c2c(C)c(-n3nccn3)sc21)OCC(C)C", "µg/mL", "=", 0.4],
  ["COc1ccc(F)cc1[C@H](Cn1c(=O)n([C@@H](C)C(=O)N(C)C(C)C)c(=O)c2c(C)c(-n3nccn3)sc21)OCCO", "µg/mL", "=", 0.4],
  ["Cc1c(-n2nccn2)sc2c1c(=O)n(C(C)(C)C(=O)NC(C)C)c(=O)n2C[C@H](OC(C)C)c1cc(F)ccc1OCC1COC1", "µg/mL", "=", 0.4],
  ["CCO[C@@H](Cn1c(=O)n(C(C)(C)C(=O)N2CCCC2)c(=O)c2c(C)c(-n3nccn3)sc21)c1cc(F)ccc1OC", "µg/mL", "=", 0.08],
  ["COc1ccc(F)cc1[C@H](Cn1c(=O)n(C(C)(C)C(=O)N2CCCC2)c(=O)c2c(C)c(-n3nccn3)sc21)OCCN(C)C", "µg/mL", ">", 50]
]}

====

# Study system: UniProt Q00955
# Sequence (Q00955 whole entry): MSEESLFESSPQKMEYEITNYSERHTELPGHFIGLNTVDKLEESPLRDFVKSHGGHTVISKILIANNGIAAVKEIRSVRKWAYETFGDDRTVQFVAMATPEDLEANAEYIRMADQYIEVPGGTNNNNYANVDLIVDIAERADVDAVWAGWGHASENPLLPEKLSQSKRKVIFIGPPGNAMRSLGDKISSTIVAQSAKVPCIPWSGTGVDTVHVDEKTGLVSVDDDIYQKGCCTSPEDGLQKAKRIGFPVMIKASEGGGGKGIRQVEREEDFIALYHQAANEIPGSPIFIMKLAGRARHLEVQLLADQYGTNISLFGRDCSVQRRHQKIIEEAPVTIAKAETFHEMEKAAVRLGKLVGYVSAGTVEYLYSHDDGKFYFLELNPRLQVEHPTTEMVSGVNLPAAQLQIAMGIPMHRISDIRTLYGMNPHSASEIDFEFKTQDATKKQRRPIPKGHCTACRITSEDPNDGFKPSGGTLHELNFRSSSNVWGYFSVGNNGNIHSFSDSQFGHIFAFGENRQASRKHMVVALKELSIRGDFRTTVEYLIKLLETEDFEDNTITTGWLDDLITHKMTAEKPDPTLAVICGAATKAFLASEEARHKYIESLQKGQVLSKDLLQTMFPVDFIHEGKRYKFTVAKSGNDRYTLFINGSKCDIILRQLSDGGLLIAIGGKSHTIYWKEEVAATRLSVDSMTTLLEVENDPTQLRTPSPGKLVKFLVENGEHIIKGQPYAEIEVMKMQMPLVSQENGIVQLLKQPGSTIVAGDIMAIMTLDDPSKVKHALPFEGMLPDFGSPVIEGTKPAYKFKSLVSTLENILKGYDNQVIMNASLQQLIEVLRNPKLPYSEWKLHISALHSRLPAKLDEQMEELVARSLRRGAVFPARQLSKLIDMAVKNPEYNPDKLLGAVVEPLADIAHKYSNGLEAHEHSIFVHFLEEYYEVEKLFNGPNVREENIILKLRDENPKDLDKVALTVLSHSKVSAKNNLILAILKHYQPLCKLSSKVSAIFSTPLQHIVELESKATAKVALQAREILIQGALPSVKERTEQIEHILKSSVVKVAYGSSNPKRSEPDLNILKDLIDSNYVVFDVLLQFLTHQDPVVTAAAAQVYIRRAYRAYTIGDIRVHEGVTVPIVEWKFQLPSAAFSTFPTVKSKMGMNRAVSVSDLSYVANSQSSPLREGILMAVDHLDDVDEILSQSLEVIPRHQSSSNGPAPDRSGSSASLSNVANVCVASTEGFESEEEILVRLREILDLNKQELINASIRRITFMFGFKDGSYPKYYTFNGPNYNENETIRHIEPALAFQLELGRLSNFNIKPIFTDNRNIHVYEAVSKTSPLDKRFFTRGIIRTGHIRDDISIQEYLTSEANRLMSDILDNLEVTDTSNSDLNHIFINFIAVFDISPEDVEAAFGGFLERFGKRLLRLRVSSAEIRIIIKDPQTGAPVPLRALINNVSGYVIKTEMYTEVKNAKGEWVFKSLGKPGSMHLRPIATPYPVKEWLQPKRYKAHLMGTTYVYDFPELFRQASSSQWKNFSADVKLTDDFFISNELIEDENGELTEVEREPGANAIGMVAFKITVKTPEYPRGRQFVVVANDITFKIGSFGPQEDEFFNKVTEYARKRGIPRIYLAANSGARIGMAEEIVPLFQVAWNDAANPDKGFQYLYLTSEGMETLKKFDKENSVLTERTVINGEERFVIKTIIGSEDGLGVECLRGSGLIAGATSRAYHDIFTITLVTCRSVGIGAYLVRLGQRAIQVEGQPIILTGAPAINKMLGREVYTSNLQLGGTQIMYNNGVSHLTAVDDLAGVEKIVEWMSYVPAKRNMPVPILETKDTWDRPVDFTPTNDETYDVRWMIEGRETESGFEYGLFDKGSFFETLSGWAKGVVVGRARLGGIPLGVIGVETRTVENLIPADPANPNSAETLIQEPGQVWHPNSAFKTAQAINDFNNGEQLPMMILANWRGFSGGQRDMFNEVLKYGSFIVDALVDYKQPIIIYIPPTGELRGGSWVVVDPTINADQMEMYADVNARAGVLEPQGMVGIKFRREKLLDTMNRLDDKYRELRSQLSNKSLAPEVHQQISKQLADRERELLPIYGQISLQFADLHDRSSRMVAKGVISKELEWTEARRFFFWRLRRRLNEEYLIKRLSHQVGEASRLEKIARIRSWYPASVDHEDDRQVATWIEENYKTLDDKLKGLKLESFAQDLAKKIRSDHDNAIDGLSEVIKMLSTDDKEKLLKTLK
# Condition parameters: read-out: fACC2 (in vitro ACC2 Inhibition Assay, IC50); Table 2b, additional results; ADP-Glo, 5 nM ACC2, 20 μM ATP, 20 μM acetyl-CoA
Reported metric: IC50

{"columns": ["Molecule", "Reported metric", "Assay result"],
 "data": [
  ["COc1ccc(F)cc1CCn1c(=O)n(C(C)(C)C(=O)NC(C)C)c(=O)c2c(C)c(-n3nccn3)sc21 [Compound I-268]", "IC50", "1 to 5 nM"],
  ["COc1ccccc1[C@H](Cn1c(=O)n(C(C)(C)C(=O)NC(C)C)c(=O)c2c(C)c(-n3nccn3)sc21)OCCN1CC(F)C1", "IC50", "1 to 5 nM"],
  ["COc1ccc(F)cc1[C@H](Cn1c(=O)n(C(C)(C)C(=O)NC(C)C)c(=O)c2c(C)c(-n3nccn3)sc21)O[C@H]1CC[C@H](C(=O)O)CC1", "IC50", "0.3 to 1 nM"]
]}

====

Each entry below lists one item and its recorded IC50 value.
# Study system: fungal (fACC2)
# Condition parameters: read-out: fACC2 (in vitro ACC2 Inhibition Assay, IC50); Table 2b, additional results; ADP-Glo, 5 nM ACC2, 20 μM ATP, 20 μM acetyl-CoA

{"columns": ["Compound", "IC50"],
 "data": [
  ["CCc1ccc(F)cc1[C@H](Cn1c(=O)n(C(C)(C)C(=O)NC(C)C)c(=O)c2c(C)c(-n3nccn3)sc21)OCCOC [Compound I-126]", "1 to 5 nM"],
  ["COc1ccc(F)cc1[C@H](Cn1c(=O)n(C(C)(C)C(N)=O)c(=O)c2c(C)c(-n3nccn3)sc21)OC1CCOCC1 [Compound I-1]", "1 to 5 nM"],
  ["CCOC(=O)[C@H]1CC[C@H](O[C@@H](Cn2c(=O)n(C(C)(C)C(=O)NC(C)C)c(=O)c3c(C)c(-n4nccn4)sc32)c2cc(F)ccc2OC)CC1 [Compound I-269]", "1 to 5 nM"],
  ["Cc1c(-n2nccn2)sc2c1c(=O)n(C(C)(C)C(=O)NC(C)C)c(=O)n2CCc1cc(F)ccc1CCCC#N [Compound I-278]", "1 to 5 nM"],
  ["COc1ccc(F)cc1[C@H](Cn1c(=O)n(C(C)C(=O)NC(C)C)c(=O)c2c(C)c(-n3nccn3)sc21)OCCO (stereo partly drawn) [Compound I-131]", "0.3 to 1 nM"],
  ["COCCCO[C@@H](Cn1c(=O)n([C@H](C)C(=O)NC(C)C)c(=O)c2c(C)c(-n3nccn3)sc21)c1cc(F)ccc1OC [Compound I-87]", "1 to 5 nM"]
]}
